test: NIH:OVCAR-3 ovarian cancer cell cytotoxicity, dose response, PAX8 inhibitor project, plate reader, dry powder samples (AID 743044); details: NIH:OVCAR-3 ovarian cancer cell viability; at 35 µM, stronger effect = lower value unless noted
Entries with a potency or affinity are not part of this list. Results filed as inconclusive are left out. Activity calls are given as the source filed them. No rule for the calls is given here.
reportedProperty: max activity

Exercise: Fill blank: measured max activity of the compound "C[C@H]1CN([C@@H](C)CO)C(=O)CCCn2nncc2CO[C@@H]1CN(C)C(=O)Nc1ccc(-c2cccs2)cc1" is ____.
Key: -29.9% (inactive)

---

biological target: E3 ubiquitin-protein ligase XIAP (Homo sapiens) (UniProt P98170); assay: XIAP binders, primary screen, biophysical, small-molecule microarray, fluorescence 635 nm (AID 1181); settings: small-molecule microarray binding, higher = more signal;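 also: score merges 667 nm emission and signal to noise over triplicate slides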
Sequence (P98170 whole entry, looked up): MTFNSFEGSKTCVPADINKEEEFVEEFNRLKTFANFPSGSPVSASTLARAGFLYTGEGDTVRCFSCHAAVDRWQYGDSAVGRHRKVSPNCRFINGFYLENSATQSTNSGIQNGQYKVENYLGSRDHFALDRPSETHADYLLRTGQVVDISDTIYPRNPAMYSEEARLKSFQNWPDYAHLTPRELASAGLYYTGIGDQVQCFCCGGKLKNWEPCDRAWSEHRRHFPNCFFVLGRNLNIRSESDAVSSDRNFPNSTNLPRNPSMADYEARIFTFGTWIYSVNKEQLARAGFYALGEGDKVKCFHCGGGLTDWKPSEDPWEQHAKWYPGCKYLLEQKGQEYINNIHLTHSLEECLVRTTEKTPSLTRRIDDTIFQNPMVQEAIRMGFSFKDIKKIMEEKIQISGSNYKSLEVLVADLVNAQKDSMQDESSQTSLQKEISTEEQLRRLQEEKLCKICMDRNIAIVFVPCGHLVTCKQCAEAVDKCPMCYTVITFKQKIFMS
Each record's class is read off its composite z-score using these ranges: bin 0 = under -0.1, bin 1 = from -0.1 up to 0.05, bin 2 = 0.05 and over

Example results:
CC(C)CNC(=O)[C@@H]1c2ccccc2C(=O)N(Cc2ccc(OC(F)(F)F)cc2)[C@H]1c1ccc(CO)cc1 : bin 2
O=C(NCc1ccccc1)[C@@H]1c2ccccc2C(=O)N(Cc2ccccc2Cl)[C@H]1c1ccc(CO)cc1 : bin 1
COc1ccc([Si](C)(C)[C@@H]2[C@@H](CCn3cc(CCO)nn3)O[C@]3(C(=O)N(Cc4ccc(N5C(=O)c6cccc7cccc5c67)cc4)c4ccccc43)[C@H]2C)cc1 : bin 1
CC(C)C[C@@H]1NC(=O)[C@@H]2C[C@H](C(=O)NCCCCCNC(=O)CS)[C@H](c3cccc(OCCO)c3)N2C1=O : bin 1
C[N+](C)(C)CCCC[C@@H]1NC(=O)[C@@H]2C[C@H](C(=O)NCCCCCNC(=O)CS)[C@H](c3ccc(O)cc3)N2C1=O : bin 1
CC(C)(C)OC(=O)CC[C@@]12N=C(c3ccc(OCCCO)cc3)O[C@@H]1c1ccccc1N(Cc1ccccc1)C2=O : bin 0
CN(C)CCCC[C@@H]1NC(=O)[C@@H]2C[C@H](C(=O)NCCCCCNC(=O)CS)[C@H](c3cccc(OCCO)c3)N2C1=O : bin 0
Cc1ccc(S[C@]2(C(=O)NCCN3CCOCC3)CC(=O)N(Cc3cc(C(F)(F)F)cc(C(F)(F)F)c3)[C@@H]2c2ccc(CO)cc2)cc1 : bin 2

Exercise: Just checking, what class would you give "O=C(NO)[C@]1(Cc2ccccc2)N=C(c2ccc(OCCCO)cc2)O[C@@H]1c1ccccc1" here?
Key: bin 1

Exercise: Can you check CCCCCN1CC=CC23O[C@@H]4/C=C\CCC(C)OC(=O)C4[C@H]2C(=O)N(CCO)[C@@H]3C1=O (stereo not given in full) next?
Key: bin 2

Exercise: Can you check "COc1ccc([Si](C)(C)[C@@H]2[C@@H](CC(=O)N3CCC[C@H]3CO)O[C@]3(C(=O)N(Cc4ccc(N5CCC5=O)cc4)c4ccccc43)[C@H]2C)cc1" next?
Key: bin 0

Exercise: Can you check "CC(C)(C)OC(=O)CC[C@]1(C(=O)NCc2ccccc2)COC(c2ccc(OCCCO)cc2)=N1" next?
Key: bin 2

Exercise: Can you check "COC(=O)c1c(CC[C@@H](CO)NC(=O)Nc2ccc(OC)cc2)oc(C(=O)Cc2ccccc2)c1C(=O)OC" next?
Key: bin 1

Exercise: Can you check "C#CCOc1ccc(C[C@H]2C(=O)O[C@H](Cc3ccccc3)[C@H](/C=C/C3CC3)N2CC#C)cc1" next?
Key: bin 0
